Quick reference for PBM binding z-score among some sequences
- System: RARa homodimer (NR concentration 270 nM)
- experimental-details: PBM binding z-score (relative to random genomic background probes); higher = stronger binding; sequences stand for … in GC…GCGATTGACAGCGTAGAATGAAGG

AGAATGAGGTTATTAAGATCAGGGTATTGCGGTC
0.859

Input: For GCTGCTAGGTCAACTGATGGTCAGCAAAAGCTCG , write its PBM binding z-score.
Output: 0.266

Input: For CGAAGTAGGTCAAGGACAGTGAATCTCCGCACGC , write its PBM binding z-score.
Output: 0.686

Input: For ACTATTAGTTGACTTAGGGCAAGCGATACGACGC , write its PBM binding z-score.
Output: 0.794

Input: For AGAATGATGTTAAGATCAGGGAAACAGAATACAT , write its PBM binding z-score.
Output: 0.423

Input: For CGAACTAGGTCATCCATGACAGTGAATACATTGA , write its PBM binding z-score.
Output: 0.371
